The entries below come with measured MFI values attached.
Biological target: mouse DLL3 on CHO-K1-mDLL3 cells (mouse) (UniProt O88516)
Sequence (O88516 other isoform, or with tags, fused parts or gaps limits assumed): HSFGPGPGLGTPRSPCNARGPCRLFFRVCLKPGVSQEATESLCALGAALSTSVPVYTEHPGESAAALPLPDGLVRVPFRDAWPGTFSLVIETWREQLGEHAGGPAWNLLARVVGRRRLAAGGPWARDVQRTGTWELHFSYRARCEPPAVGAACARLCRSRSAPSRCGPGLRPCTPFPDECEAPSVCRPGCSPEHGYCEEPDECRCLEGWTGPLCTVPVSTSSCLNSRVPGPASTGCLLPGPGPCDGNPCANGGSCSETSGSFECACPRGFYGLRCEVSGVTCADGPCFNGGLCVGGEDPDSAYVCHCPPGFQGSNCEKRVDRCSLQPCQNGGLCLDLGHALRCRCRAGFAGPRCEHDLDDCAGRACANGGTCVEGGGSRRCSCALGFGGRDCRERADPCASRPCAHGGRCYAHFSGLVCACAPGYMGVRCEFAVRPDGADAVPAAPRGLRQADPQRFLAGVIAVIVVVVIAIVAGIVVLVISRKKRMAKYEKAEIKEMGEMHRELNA
Experiment: FACS, CHO-K1-mDLL3 cells, 0.8 nM antibody

binder: Hab009VL3aVH1-hFc (scFv, part only; not given: VL-VH linker and human IgG1 Fc, V domains shown, not shown: another chain or arm of the molecule; a dimerising Fc or GST; small tags and cut ends) VL: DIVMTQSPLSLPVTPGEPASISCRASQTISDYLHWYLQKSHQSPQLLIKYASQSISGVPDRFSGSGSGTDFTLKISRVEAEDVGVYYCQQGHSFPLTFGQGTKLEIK VH: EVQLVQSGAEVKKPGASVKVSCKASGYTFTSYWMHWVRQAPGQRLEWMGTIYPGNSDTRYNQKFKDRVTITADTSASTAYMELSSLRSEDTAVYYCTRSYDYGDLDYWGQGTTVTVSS
MFI [MFI]: 413

binder: Hab013VL2VH2a-hFc (scFv, part only; not given: scFv linker and human IgG1 Fc, V domains shown, not shown: another chain or arm of the molecule; a dimerising Fc or GST; small tags and cut ends) VL: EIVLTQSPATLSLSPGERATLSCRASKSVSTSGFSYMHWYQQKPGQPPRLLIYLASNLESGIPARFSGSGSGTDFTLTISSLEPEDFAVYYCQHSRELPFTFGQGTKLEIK VH: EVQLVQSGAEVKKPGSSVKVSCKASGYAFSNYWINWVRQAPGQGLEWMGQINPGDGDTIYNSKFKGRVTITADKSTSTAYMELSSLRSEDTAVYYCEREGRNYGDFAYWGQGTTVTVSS
MFI [MFI]: 463
